Biological target: NaV1.4 (Rattus norvegicus, UniProt P15390)
Construct: gene Scn4a
Sequence (P15390 whole entry): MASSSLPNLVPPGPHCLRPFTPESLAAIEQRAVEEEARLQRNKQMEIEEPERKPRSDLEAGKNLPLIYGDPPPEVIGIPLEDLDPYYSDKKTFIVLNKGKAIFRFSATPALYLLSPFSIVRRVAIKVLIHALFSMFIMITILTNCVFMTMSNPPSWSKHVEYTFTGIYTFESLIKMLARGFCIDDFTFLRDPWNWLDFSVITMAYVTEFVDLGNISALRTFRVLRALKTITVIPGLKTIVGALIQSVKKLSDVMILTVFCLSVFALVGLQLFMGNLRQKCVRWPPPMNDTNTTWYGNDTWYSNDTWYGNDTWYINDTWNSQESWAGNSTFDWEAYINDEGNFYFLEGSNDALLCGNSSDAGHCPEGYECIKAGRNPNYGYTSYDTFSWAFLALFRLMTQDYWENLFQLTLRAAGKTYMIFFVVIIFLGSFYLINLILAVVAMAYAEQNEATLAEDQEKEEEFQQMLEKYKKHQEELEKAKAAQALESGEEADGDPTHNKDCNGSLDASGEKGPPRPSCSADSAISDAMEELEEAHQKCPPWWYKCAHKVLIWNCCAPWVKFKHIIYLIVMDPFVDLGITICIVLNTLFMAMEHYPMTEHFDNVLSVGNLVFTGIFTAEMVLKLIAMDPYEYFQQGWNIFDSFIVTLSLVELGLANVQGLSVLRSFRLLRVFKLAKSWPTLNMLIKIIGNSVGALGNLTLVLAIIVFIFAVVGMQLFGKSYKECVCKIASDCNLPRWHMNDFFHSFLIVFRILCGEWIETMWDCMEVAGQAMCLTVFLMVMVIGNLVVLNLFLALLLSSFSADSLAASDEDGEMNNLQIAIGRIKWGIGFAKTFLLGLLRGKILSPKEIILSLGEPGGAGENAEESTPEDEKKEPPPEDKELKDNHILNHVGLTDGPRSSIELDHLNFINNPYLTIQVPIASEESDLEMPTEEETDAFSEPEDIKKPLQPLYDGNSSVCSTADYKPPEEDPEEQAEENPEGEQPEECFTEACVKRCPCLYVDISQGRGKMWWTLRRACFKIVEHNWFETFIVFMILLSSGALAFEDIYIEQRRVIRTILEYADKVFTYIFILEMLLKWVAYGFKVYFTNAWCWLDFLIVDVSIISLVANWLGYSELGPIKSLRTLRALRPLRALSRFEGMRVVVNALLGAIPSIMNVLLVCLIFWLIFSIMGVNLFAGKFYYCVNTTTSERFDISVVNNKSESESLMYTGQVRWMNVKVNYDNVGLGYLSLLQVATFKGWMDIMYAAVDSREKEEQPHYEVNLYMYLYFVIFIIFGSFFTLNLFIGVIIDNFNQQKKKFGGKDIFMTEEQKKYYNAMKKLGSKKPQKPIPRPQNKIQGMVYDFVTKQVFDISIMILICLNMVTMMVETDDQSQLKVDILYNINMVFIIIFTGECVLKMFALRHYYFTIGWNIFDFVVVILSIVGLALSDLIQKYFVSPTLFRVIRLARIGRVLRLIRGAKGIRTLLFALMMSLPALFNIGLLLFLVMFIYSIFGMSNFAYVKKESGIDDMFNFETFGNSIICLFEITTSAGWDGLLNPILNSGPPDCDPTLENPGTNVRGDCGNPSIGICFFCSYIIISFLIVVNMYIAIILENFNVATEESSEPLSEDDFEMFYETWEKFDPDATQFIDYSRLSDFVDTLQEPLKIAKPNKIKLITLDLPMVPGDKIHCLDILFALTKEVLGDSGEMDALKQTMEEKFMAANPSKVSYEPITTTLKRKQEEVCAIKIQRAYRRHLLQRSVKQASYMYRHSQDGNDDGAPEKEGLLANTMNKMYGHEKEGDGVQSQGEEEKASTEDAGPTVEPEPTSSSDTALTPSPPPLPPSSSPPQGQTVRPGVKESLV
Assay: two-electrode voltage clamp in Xenopus oocytes, concentration-response; also QPatch patch clamp
Format: cell-based
observation_type: IC50 (µM)
Reply numerically in µM, unit not repeated.

Ask: What does the data say about its IC50? Entry: Nc1nc(-c2cccc(NC(=O)c3c[nH]c4ccccc34)c2)c[nH]1
Reply: 3.5
